Biological target: Tubulin (Bos taurus) (UniProt Q6B856+Q862F3)
Conditions: at 5 µM
Description: Displacement of [3H]colchicine from bovine brain tubulin at 5 uM
Give t when the value for inhibition is at least 80%. Give f when it is less.

• COc1cc(C(=O)n2c(-c3cn(C)c4ccc(Br)cc34)nc3ccccc32)cc(OC)c1OC = t
• COc1ccc(C(=O)n2c(-c3cn(C)c4ccccc34)nc3ccccc32)cc1OC = t
• Cn1cc(-c2nc3ccccc3n2C(=O)c2ccccc2)c2cc(Br)ccc21 = f
• COc1ccc(C(=O)n2c(-c3cn(C)c4ccc(Br)cc34)nc3ccccc32)cc1OC = t
• COc1ccccc1C(=O)n1c(-c2cn(C)c3ccccc23)nc2ccccc21 = f
• Cn1cc(-c2nc3ccccc3n2C(=O)c2ccccc2Br)c2cc(Br)ccc21 = f
• COc1ccc2c(c1)c(-c1nc3ccccc3n1C(=O)c1cccc(Br)c1)cn2C = f
• Cn1cc(-c2nc3ccccc3n2C(=O)c2cccc(Br)c2)c2ccccc21 = f
• Cn1cc(-c2nc3ccccc3n2C(=O)c2ccccc2Br)c2ccccc21 = f
• COc1cc(C(=O)n2c(-c3cn(C)c4ccccc34)nc3ccccc32)cc(OC)c1OC = t
• COc1ccc2c(c1)c(-c1nc3ccccc3n1C(=O)c1ccccc1Br)cn2C = f
• Cn1cc(-c2nc3ccccc3n2C(=O)c2ccccc2)c2ccccc21 = f
• COc1ccc2c(c1)c(-c1nc3ccccc3n1C(=O)c1ccccc1)cn2C = f
• COc1ccc(/C=C\c2cc(OC)c(OC)c(OC)c2)cc1O [COMBRETASTATIN A4] = t
• COc1ccc2c(c1)c(-c1nc3ccccc3n1C(=O)c1ccccc1OC)cn2C = f
• COc1ccc(C(=O)n2c(-c3cn(C)c4ccc(Br)cc34)nc3ccccc32)cc1 = f

---

Target: Tubulin (Bos taurus) (UniProt Q6B856+Q862F3)
Conditions: at 5 µM
recorded_endpoint: inhibition (%)

- COc1cccc(C(=O)n2c(-c3cn(C)c4ccc(OC)cc34)nc3ccccc32)c1: 84
- Cn1cc(-c2nc3ccccc3n2C(=O)c2cccc(Br)c2)c2cc(Br)ccc21: 51
- COc1ccccc1C(=O)n1c(-c2cn(C)c3ccc(Br)cc23)nc2ccccc21: 68
- COc1ccc2c(c1)c(-c1nc3ccccc3n1C(=O)c1ccc(OC)c(OC)c1)cn2C: 94
- COc1ccc2c(c1)c(-c1nc3ccccc3n1C(=O)c1cc(OC)c(OC)c(OC)c1)cn2C: 96

---

Molecular target: Tubulin (Bos taurus, UniProt Q6B856+Q862F3)
Sequence (Q6B856 whole entry): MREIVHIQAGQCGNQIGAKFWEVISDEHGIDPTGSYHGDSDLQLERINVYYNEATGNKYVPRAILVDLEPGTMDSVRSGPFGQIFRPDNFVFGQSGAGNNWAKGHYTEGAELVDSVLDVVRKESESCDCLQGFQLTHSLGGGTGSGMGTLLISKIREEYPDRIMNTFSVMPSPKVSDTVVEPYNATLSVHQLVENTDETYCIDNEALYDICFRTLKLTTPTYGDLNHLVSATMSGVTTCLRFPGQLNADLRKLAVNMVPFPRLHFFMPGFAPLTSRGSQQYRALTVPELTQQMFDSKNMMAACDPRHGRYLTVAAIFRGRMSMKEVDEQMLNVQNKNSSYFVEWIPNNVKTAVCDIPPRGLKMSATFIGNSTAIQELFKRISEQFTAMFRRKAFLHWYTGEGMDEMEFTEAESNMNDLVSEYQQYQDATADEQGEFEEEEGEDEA
Sequence (Q862F3 whole entry): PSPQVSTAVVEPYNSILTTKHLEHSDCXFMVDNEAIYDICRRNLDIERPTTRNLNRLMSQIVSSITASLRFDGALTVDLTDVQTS
Assay: Inhibition of bovine brain tubulin polymerization extent after 20 mins by turbidimetrically
pIC50: −log10 of the molar value.
Give Satisfied when the value for pIC50 is at least 5. Give Not satisfied when it is less.

• COc1cccc(C(=O)n2c(-c3cn(C)c4ccc(OC)cc34)nc3ccccc32)c1 = Satisfied
• COc1ccc(C(=O)n2c(-c3cn(C)c4ccc(Br)cc34)nc3ccccc32)cc1 = Satisfied
• Cn1cc(-c2nc3ccccc3n2C(=O)c2ccccc2Br)c2ccccc21 = Not satisfied
• COc1ccc(C(=O)n2c(-c3cn(C)c4ccc(Br)cc34)nc3ccccc32)cc1OC = Satisfied
• COc1ccccc1C(=O)n1c(-c2cn(C)c3ccc(Br)cc23)nc2ccccc21 = Not satisfied
• COc1cc(C(=O)n2c(-c3cn(C)c4ccc(Br)cc34)nc3ccccc32)cc(OC)c1OC = Satisfied
• Cn1cc(-c2nc3ccccc3n2C(=O)c2ccccc2)c2cc(Br)ccc21 = Not satisfied
• COc1ccc2c(c1)c(-c1nc3ccccc3n1C(=O)c1ccc(OC)c(OC)c1)cn2C = Satisfied
• COc1cc(C(=O)n2c(-c3cn(C)c4ccccc34)nc3ccccc32)cc(OC)c1OC = Satisfied
• Cn1cc(-c2nc3ccccc3n2C(=O)c2cccc(Br)c2)c2cc(Br)ccc21 = Not satisfied
• Cn1cc(-c2nc3ccccc3n2C(=O)c2cccc(Br)c2)c2ccccc21 = Not satisfied
• COc1ccc(C(=O)n2c(-c3cn(C)c4ccc(OC)cc34)nc3ccccc32)cc1 = Satisfied
• COc1cccc(C(=O)n2c(-c3cn(C)c4ccc(Br)cc34)nc3ccccc32)c1 = Satisfied
• COc1ccc(C(=O)n2c(-c3cn(C)c4ccccc34)nc3ccccc32)cc1OC = Satisfied
• COc1ccc2c(c1)c(-c1nc3ccccc3n1C(=O)c1ccccc1Br)cn2C = Not satisfied
• COc1ccc2c(c1)c(-c1nc3ccccc3n1C(=O)c1cc(OC)c(OC)c(OC)c1)cn2C = Satisfied
• COc1cccc(C(=O)n2c(-c3cn(C)c4ccccc34)nc3ccccc32)c1 = Satisfied
• COc1ccc(C(=O)n2c(-c3cn(C)c4ccccc34)nc3ccccc32)cc1 = Satisfied
• Cn1cc(-c2nc3ccccc3n2C(=O)c2ccccc2Br)c2cc(Br)ccc21 = Not satisfied
• COc1ccc2c(c1)c(-c1nc3ccccc3n1C(=O)c1ccccc1)cn2C = Not satisfied
• COc1ccc2c(c1)c(-c1nc3ccccc3n1C(=O)c1cccc(Br)c1)cn2C = Not satisfied
• COc1ccccc1C(=O)n1c(-c2cn(C)c3ccccc23)nc2ccccc21 = Not satisfied
• Cn1cc(-c2nc3ccccc3n2C(=O)c2ccccc2)c2ccccc21 = Not satisfied

This collection of values is drawn from ChEMBL document CHEMBL3588853.
